biological target: VLA-4-IgG chimera protein (Homo sapiens, UniProt P05556+P13612); assay: Inhibitory effect against binding between CS-1 peptide and VLA-4-IgG chimera protein; conditions: binding of VLA-4-IgG chimera protein to immobilized CS-1 peptide-rabbit IgG conjugate; compound preincubated 20 min; 30° C. 3 hours; absorbance at 490 nm
Sequence (P13612 with tags, fused parts or gaps limits assumed): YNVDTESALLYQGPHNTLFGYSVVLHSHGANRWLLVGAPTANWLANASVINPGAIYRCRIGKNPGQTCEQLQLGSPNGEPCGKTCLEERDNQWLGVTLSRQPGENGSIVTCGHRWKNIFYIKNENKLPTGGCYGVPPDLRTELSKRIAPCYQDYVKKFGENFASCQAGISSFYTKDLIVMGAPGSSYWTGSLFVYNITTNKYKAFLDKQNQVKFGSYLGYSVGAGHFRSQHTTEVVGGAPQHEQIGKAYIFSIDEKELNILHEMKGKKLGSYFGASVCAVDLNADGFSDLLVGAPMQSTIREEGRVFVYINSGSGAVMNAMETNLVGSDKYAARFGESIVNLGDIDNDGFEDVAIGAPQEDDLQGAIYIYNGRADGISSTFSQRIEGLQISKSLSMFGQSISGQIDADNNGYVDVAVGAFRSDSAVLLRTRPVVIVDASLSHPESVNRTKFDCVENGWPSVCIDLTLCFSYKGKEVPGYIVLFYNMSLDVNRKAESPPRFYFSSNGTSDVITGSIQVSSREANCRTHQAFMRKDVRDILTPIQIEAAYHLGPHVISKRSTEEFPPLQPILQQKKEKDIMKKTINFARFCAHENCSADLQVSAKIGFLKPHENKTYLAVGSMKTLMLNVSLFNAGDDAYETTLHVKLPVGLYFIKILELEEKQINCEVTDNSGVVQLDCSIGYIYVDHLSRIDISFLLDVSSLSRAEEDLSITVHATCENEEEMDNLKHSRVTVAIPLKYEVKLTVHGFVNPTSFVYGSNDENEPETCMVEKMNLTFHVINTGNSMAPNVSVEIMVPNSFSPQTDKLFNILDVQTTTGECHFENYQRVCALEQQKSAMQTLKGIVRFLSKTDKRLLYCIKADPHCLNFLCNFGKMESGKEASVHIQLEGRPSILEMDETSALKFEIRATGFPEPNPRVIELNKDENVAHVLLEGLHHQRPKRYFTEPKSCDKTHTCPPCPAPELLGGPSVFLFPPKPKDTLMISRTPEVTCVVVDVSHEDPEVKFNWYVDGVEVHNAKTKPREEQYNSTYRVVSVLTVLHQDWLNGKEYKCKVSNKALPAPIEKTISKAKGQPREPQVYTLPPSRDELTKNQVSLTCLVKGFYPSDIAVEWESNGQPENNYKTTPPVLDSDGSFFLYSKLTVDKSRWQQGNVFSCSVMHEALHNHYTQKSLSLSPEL
Sequence (P05556 with tags, fused parts or gaps limits assumed): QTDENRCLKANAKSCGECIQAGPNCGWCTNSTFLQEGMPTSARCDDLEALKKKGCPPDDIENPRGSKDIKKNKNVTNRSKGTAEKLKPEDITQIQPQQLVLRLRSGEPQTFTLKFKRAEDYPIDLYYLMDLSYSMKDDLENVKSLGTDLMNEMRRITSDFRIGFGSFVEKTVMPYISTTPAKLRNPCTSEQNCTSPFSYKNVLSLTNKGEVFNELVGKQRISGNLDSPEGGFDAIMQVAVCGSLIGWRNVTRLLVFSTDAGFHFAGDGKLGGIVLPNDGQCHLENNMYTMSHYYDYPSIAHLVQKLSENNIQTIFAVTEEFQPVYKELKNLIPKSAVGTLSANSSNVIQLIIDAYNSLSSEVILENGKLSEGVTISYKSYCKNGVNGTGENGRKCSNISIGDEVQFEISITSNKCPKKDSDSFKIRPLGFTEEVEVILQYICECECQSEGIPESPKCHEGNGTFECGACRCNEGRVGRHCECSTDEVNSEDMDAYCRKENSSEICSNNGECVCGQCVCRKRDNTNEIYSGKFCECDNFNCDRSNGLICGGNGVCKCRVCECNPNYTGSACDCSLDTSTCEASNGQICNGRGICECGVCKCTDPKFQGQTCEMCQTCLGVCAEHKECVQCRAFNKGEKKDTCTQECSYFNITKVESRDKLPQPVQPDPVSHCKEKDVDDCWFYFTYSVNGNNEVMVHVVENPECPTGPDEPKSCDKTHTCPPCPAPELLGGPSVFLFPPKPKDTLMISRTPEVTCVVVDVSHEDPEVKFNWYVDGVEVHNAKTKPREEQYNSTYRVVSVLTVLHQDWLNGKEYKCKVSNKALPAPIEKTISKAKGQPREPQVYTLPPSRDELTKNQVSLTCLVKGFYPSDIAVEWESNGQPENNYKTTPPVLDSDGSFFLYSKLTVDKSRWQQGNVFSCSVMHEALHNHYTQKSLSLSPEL
Reported Property: IC50 (nM)

Known results for molecules:
C[C@@H]1CCC[C@H](C)N1C(=O)N[C@@H](Cn1ccc(NC(=O)c2c(Cl)cccc2Cl)nc1=O)C(=O)O [Compound 50] ... 4.5
CS(=O)(=O)N1CC2(CCN(C(=O)N[C@@H](Cn3ccc(NC(=O)c4c(Cl)cccc4Cl)nc3=O)C(=O)O)CC2)c2ccccc21 [Compound 28] ... 3.8

P: CC(=O)NC1(c2ccccc2)CCN(C(=O)N[C@@H](Cn2ccc(NC(=O)c3c(Cl)cccc3Cl)nc2=O)C(=O)O)CC1 [Compound 37]
Q: O=C(Nc1ccn(C[C@H](NC(=O)N2CCC3(CC2)C(=O)NCN3c2ccccc2)C(=O)O)c(=O)n1)c1c(Cl)cccc1Cl [Compound 35]
R: O=C(Nc1ccn(C[C@H](NC(=O)N2CCC(n3c(=O)[nH]c4ccccc43)CC2)C(=O)O)c(=O)n1)c1c(Cl)cccc1Cl [Compound 32]
Query string: Order these by IC50, descending, and give the full ranking. // rank by listing labels in the order requested
Result string: P, Q, R

This collection of values is drawn from patent US20040039040A1.
